# TESTED_TARGET: T1, E. coli expressed BAHD1(aa:588–780) (UniProt Q8TBE0 588-780)
# T1 chain: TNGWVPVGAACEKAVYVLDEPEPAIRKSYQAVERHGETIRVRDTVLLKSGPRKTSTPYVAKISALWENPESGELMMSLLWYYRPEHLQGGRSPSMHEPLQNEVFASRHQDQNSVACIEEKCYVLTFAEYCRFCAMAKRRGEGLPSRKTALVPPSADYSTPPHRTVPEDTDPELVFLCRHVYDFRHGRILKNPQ
# METHOD_DESCRIPTION: FP
Starred links: 1 amine or outer side, 2 acyl side, 3 side chain; linkers in the order of their positions; H or OH if unused. Non-standard residues stand in square brackets, D forms with d. No end group written: not given here. Lys(Me3) = C[N+](C)(C)CCCC[C@H](N)C(=O)O; Ethylenediamine = C(CN[*:2])N[*:1]; 5‑FAM = 5-carboxyfluorescein; GABA = NCCCC(=O)O
MEASURED_ENDPOINT: Kd

                                     binder  measured_endpoint  reported
0  PRKQLATKAAR[Lys(Me3)]SAPATGG-{Ethylenediamine-GABA-5‑FAM} [H3 16–35 K27me3 peptide]                 Kd    700 nM
